Below, each entry is listed with its recorded composite z-score.
assayNotes: small-molecule microarray binders of probe aShh, primary screen, biochemical, biotinylated probe, 635/667 nm fluorescence (AID 1114);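 also: probe is biotin-labelled aShh protein from a stem cell growth factor screen; measures binding of labelled protein to compounds printed on the slide; score merges feature fluorescence at 667 nm with signal-to-noise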
conditionSet: higher = more signal
Just the number.

Use the examples below as a reference point.
CCC(CC)C(O)C1C=CC2C(=O)N(C)C(=O)C2N1N1CCCCC1 (stereo unspecified)	0.0381
[N-]=[N+]=NCc1ccccc1C[C@]1(C(=O)N2CCCCC2)N=C(c2ccc(OCCCO)cc2)O[C@H]1c1ccccc1	0.134
COCCOC(=O)N1C(=O)[C@@]2(c3cc(C#CC4=CCCCC4)ccc31)[C@H](c1ccc(OCCO)cc1)N1[C@H](c3ccccc3)[C@H](c3ccccc3)OC(=O)[C@H]1[C@@H]2C(=O)N1CCCCCCC1	1.44

Query :: What value of composite z-score has been reported for the following compound? C=CCC(OC(C)=O)[C@@H]1[C@@H](N(Cc2cc3ccccc3o2)C(=O)Cc2ccc(OC)cc2)c2cc(OCCCO)ccc2N1C(=O)Cc1ccc(OC)cc1 (stereo partly specified)
Result :: -0.0626

Query :: Entry `COCCOC(=O)N1C(=O)[C@@]2(c3cc(C#Cc4ccc(OC)cc4)ccc31)[C@H](c1ccc(OCCO)cc1)N1[C@H](c3ccccc3)[C@H](c3ccccc3)OC(=O)[C@H]1[C@@H]2C(=O)N1CCCCCCC1` has what composite z-score?
Result :: 2.23

Query :: I am curious: what composite z-score value has been reported for `CN1C(=O)[C@]2(CCC(=O)OC(C)(C)C)N=C(c3ccc(OCCCO)cc3)O[C@@H]2c2ccccc21` ?
Result :: 0.275

====

assayNotes: fission yeast growth modulation, primary screen, strain 972, OD600, 24 h, no modulator (AID 1090);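 also: basal condition with compound alone and no growth modifier present; test concentration not given here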
conditionSet: S. pombe 972 growth, higher = more signal, called active from +8 up or from −8 down
I would appreciate it if you labelled entries yes (1) when z-score is -0.4 or higher, otherwise no (0).

Past entries and their recorded results:
CN1C(=O)C2C=CC(C(O)c3ccc(-c4ccccc4)s3)N(Nc3ccccc3)C2C1=O (centres undefined)	yes (1)
CCCCC(=C=CC[C@@H](O)c1cccc(OCCO)c1)CCO	yes (1)
NC(=O)NCC#Cc1ccc2c(c1)[C@]1(C(=O)N2)[C@H](C(=O)N2CCCCCCC2)[C@H]2C(=O)O[C@H](c3ccccc3)[C@H](c3ccccc3)N2[C@@H]1c1ccc(O)cc1	yes (1)
O=C1N(CCS(=O)(=O)c2ccccc2)c2ccccc2[C@@H]2OC(c3ccc(OCCCO)cc3)=N[C@]12CCS(=O)(=O)c1ccccc1	yes (1)
COCCOC(=O)N1C(=O)[C@@]2(c3ccccc31)[C@H](C(N)=O)[C@H]1C(=O)O[C@H](c3ccccc3)[C@H](c3ccccc3)N1[C@@H]2c1ccc(OCCO)cc1	yes (1)
CC(C)C[C@@H]1NC(=O)[C@H]2C[C@@H](C(=O)NCCCCCCNC(=O)CS)[C@@H](c3ccc(O)cc3)N2C1=O	yes (1)
NCCCC[C@@H]1NC(=O)[C@H]2C[C@@H](C(=O)NCc3ccc(F)cc3)[C@@H](c3cccc(OCCO)c3)N2C1=O	yes (1)
CCCCC(O)C1C=CC2C(=O)NC(=O)C2N1Nc1ccc(Cl)cc1Cl (centres undefined)	no (0)

Query :: API: above_or_equal(metric=z-score, cutoff=-0.4) for item CC(C)C[C@H]1NC(=O)[C@H](Cc2ccccc2)NC(=O)[C@@]23C(=O)N[C@@H](Cc4ccccc4)C2[C@H](C)[C@@]2(C)O[C@H]2C3/C=C/C/C=C\CNC1=O (some centres undefined)
Result :: no (0)

Query :: Hello, I need to know if `C=CC[C@@]1(C(=O)O)N=C(c2ccc(OCCCO)cc2)O[C@@H]1c1ccccc1CN=[N+]=[N-]` has measured z-score not below -0.4. Thanks!
Result :: no (0)

Query :: Identify whether the reported z-score of the following compound is -0.4 or greater: `CO[C@H]1O[C@H](CO)[C@@H](OC(=O)Nc2ccccc2)[C@@H]2OC(=O)[C@H](Cc3ccccc3)C/C=C/C[C@@H](Cc3ccccc3)C(=O)O[C@@H]12`
Result :: yes (1)

Query :: Identify whether the reported z-score of the following compound is -0.4 or greater: `COCCOC(=O)N1C(=O)[C@@]2(c3cc(C#Cc4ccc(OC)cc4)ccc31)[C@H](C(=O)Nc1nc3ccccc3s1)[C@H]1C(=O)O[C@H](c3ccccc3)[C@H](c3ccccc3)N1[C@@H]2c1ccccc1OCCO`
Result :: yes (1)

Query :: Textbook exercise: given the entry `CN(C)CCCC[C@@H]1NC(=O)[C@H]2C[C@@H](C(=O)NCc3ccc(F)cc3)[C@@H](c3ccc(O)cc3)N2C1=O` , state whether its z-score is greater than or equal to -0.4.
Result :: no (0)

====

assayNotes: PSAC antagonists in infected red cells, primary screen, cell-based, P. falciparum Indochina, OD700, 18 h (AID 1157)
conditionSet: P. falciparum Indochina infected erythrocytes, osmotic lysis OD700, 18 h; higher = more signal, called active from +8 up or from −8 down
If the reported z-score equals or exceeds 0.4, assign y. If not, assign n.

CN(C)C(=O)[C@@]1(CCS(=O)(=O)c2ccccc2)N=C(c2ccc(OCCCO)cc2)O[C@H]1c1ccccc1N=[N+]=[N-]	y
C=CC[C@]1(C(=O)OC)N=C(c2ccc(OCCCO)cc2)O[C@H]1c1ccccc1N=[N+]=[N-]	y
O=C1N(CCS(=O)(=O)c2ccccc2)c2ccccc2[C@@H]2OC(c3ccc(OCCCO)cc3)=N[C@]12CCS(=O)(=O)c1ccccc1	y
CC(=O)NCCCC[C@@H]1NC(=O)[C@H]2C[C@@H](C(=O)NCCCCCC[N+](C)(C)C)[C@@H](c3ccc(O)cc3)N2C1=O	n
CCCC=C(CCC)[C@@H](NC(=O)c1ccco1)c1ccc(C(=O)OC)cc1	y

Query :: Given the entry `C[N+](C)(C)CCCCCCNC(=O)[C@@H]1C[C@@H]2C(=O)N[C@@H](Cc3ccccc3)C(=O)N2[C@@H]1c1ccc(O)cc1` , answer whether its z-score meets or surpasses 0.4.
Result :: n

Query :: Reported z-score reaches at least 0.4 for O=C1OCCC=C[C@H]2OC34C=CCN(c5ccc(Cl)cc5)C(=O)[C@H]3N(CCO)C(=O)[C@@H]4C12 (some centres not stated) ?
Result :: n

====

system: Epidermal growth factor receptor (Homo sapiens)
assayNotes: EGFR binders on small-molecule microarrays, primary screen, biochemical, small-molecule microarray, 635 nm fluorescence (AID 1104);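 also: score merges 667 nm emission intensity with spot signal to noise over triplicate slides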
conditionSet: EGFR binding, higher = more signal
Quick rule: composite z-score of at least 0.04 means true, below that means false.

CCCCNC(=O)c1ccc(C#C[Si](C)(C)C)c(OC(C)=O)c1	true
O=C1c2ccccc2[C@](Cc2ccccc2I)(C(=O)O)[C@H](c2ccc(CO)cc2)N1Cc1ccccc1	false
COC(=O)c1ccc([C@H](NC(=O)c2ccccc2)[C@]2(C)C[C@H]2C2CCCCC2)cc1	false
Cc1ccc(S[C@]2(C(=O)NCCCN(C)C)CC(=O)N(Cc3ccccc3Cl)[C@@H]2c2ccc(CO)cc2I)cc1	false

Query :: Does `CCCC=C(CCC)[C@@H](NS(=O)(=O)c1ccc(Cl)cc1)c1ccccc1` have a reported composite z-score of at least 0.04?
Result :: false

Query :: Please indicate if the recorded composite z-score for `NC(=O)[C@@]1(CCS(=O)(=O)c2ccccc2)COC(c2ccc(OCCCO)cc2)=N1` meets or exceeds 0.04.
Result :: false

====

assayNotes: binders of probe aHhip on microarray, primary screen, stem cell growth factor project, biochemical, small-molecule microarray, fluorescence 635/667 (AID 1087);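 also: score merges spot fluorescence at 667nm with spot signal to noise ratio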
conditionSet: higher = more signal
recordedEndpoint: composite z-score
The reply should be a number, written without any unit.

A selection of reference data follows.
[N-]=[N+]=NCc1ccccc1C[C@@]1(C(=O)O)N=C(c2ccc(OCCCO)cc2)O[C@@H]1c1ccccc1CN=[N+]=[N-]	-0.173
COC(=O)Cn1c(C(=O)N(C)C)cc2c1C[C@H]1CN(C(=O)c3ccccc3)[C@@](Cc3ccc(OC)cc3)(C(=O)OC)[C@@H]21	0.0053
COC(=O)[C@@]1(CCS(=O)(=O)c2ccccc2)N=C(c2ccc(OCCCO)cc2)O[C@H]1c1ccccc1N=[N+]=[N-]	-0.0346

Query :: Recorded composite z-score of `CCCC[C@@H](O)C1=C(COC)Cn2c(=O)n(-c3ccccc3)c(=O)n2[C@H]1CO` , please.
Result :: -0.236

====

assayNotes: basal RPMI8226 viability, no added stimulus, profiling panel, cell-based, calcein-AM fluorescence, 48 h, PK04 Diversity Set (AID 1166);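 also: cells grown under basal conditions without added stimulus; test concentration not given here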
conditionSet: RPMI8226 myeloma viability, higher = more signal
recordedEndpoint: z-score
Give a plain numeric answer without units written out.

Look over these answered cases.
O=C1c2ccccc2[C@](Cc2ccccc2I)(C(=O)O)[C@H](c2ccc(CO)cc2)N1Cc1ccccc1	-1.66
COC(=O)[C@H](Cc1ccc(O)cc1)N1CC2=CCCC=C[C@@H]2[C@H]1[C@H](O)Cc1ccccc1	-0.833

Query :: Given `CC(C)[C@@H](C(=O)O)n1cc(-c2ccccc2)nn1` , state its recorded z-score.
Result :: -0.887

Query :: Quick one: z-score for CC1CC/C=C\[C@H]2OC34C=CCN(c5ccc(Cl)cc5)C(=O)[C@H]3N(CCCO)C(=O)[C@]4(C)C2C(=O)O1 (stereo partly drawn) ?
Result :: 0.338
